Cited source for all entries: patent US20110236969A1

# system_name: CD30 fused to the Fc region of IgG1 (R&D Systems) (UniProt P28908)
# assay_summary: SPR, CD30-Fc on Protein A chip

{"binder": "AC10 H3L3 (H3 AC10 VH, L3 AC10 VL) (antibody, from a related filing, IgG1, V domains shown) VH: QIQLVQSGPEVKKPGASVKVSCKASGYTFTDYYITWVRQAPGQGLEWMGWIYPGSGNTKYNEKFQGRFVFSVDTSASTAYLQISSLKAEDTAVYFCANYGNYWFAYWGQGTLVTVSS VL: DIVLTQSPDSLAVSLGERATINCKASQSVDFDGDSYMNWYQQKPGQPPKVLIYAASNLESGIPARFSGSGSGTDFTLTINSLEAEDAATYYCQQSNEDPWTFGGGTKVEIK", "u": "fold", "Fold KD relative to WT": 1.45}
{"binder": "AC10 H2L1 (H2 AC10 VH, L1 AC10 VL) (antibody, from a related filing, IgG1, V domains shown) VH: QIQLVESGGGLVKPGGSLRLSCAASGYTFTDYYITWVRQAPGQGLEWMGWIYPGSGNTKYNEKFQGRVTMTVDTSTSTAYMELSSLRSEDTAVYFCANYGNYWFAYWGQGTLVTVSS VL: DIVLTQSPATLSLSPGERATLSCRASQSVDFDGDSYMNWYQQKPGQPPKVLIYAASNLESGIPARFSGSGSGTDFTLTISSLQPEDFATYYCQQSNEDPWTFGGGTKVEIK", "u": "fold", "Fold KD relative to WT": 0.36}
{"binder": "AC10 H3L1 (H3 AC10 VH, L1 AC10 VL) (antibody, from a related filing, IgG1, V domains shown) VH: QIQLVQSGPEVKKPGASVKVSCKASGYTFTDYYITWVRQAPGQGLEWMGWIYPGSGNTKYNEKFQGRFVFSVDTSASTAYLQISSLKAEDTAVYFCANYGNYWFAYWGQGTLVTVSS VL: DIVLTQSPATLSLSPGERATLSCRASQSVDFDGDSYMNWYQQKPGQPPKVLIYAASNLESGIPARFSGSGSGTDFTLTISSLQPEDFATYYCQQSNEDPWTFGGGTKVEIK", "u": "fold", "Fold KD relative to WT": 1.39}
{"binder": "AC10 H2L3 (H2 AC10 VH, L3 AC10 VL) (antibody, from a related filing, IgG1, V domains shown) VH: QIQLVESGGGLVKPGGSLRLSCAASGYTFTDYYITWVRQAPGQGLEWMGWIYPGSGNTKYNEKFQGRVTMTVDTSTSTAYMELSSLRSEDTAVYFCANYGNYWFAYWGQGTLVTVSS VL: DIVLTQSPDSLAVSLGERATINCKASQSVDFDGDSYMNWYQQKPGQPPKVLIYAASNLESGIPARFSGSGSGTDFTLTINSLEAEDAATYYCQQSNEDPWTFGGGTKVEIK", "u": "fold", "Fold KD relative to WT": 0.5}
{"binder": "AC10 H1L2 (H1 AC10 VH, L2 AC10 VL) (antibody, from a related filing, IgG1, V domains shown) VH: QIQLVQSGPEVKKPGASVKVSCKASGYTFTDYYITWVRQAPGQGLEWMGWIYPGSGNTKYNEKFQGRVTITVDTSASTAYMELSSLRSEDTAVYFCANYGNYWFAYWGQGTLVTVSS VL: DIVLTQSPSSLSASVGDRVTITCRASQSVDFDGDSYMNWYQQKPGQPPKVLIYAASNLESGIPARFSGSGSGTDFTLTISSLQPEDFATYYCQQSNEDPWTFGGGTKVEIK", "u": "fold", "Fold KD relative to WT": 0.45}
{"binder": "AC10 H1L1 (H1 AC10 VH, L1 AC10 VL) (antibody, from a related filing, IgG1, V domains shown) VH: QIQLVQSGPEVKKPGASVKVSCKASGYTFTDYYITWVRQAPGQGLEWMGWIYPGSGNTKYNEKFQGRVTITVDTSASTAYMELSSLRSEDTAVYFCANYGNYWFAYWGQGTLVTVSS VL: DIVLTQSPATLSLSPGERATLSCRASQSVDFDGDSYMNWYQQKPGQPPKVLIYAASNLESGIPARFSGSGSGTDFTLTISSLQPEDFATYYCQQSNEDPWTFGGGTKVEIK", "u": "fold", "Fold KD relative to WT": 0.6}
{"binder": "AC10 H1L3 (H1 AC10 VH, L3 AC10 VL) (antibody, from a related filing, IgG1, V domains shown) VH: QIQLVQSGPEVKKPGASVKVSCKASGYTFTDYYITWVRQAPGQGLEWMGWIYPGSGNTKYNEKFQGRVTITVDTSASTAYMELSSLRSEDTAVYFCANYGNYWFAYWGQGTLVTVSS VL: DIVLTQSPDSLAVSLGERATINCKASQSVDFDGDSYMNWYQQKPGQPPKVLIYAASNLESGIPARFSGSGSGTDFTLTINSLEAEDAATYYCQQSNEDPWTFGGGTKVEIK", "u": "fold", "Fold KD relative to WT": 0.67}
